The measurements presented in this section are drawn from patent US20260151494A1.

molecular target: apical domain of CD71 (Screen 3: 'cynomolgus apical domain of human CD71') (cynomolgus (as paragraph 454 words it; ambiguous)); experiment: primary ELISA, RLU ratio to HSA
For each of the binders below, state its Apical domain:HSA.
Answer with the value's number alone.

Indicate its recorded Apical domain:HSA; the binder in question is CD71-binding FN3 domain SEQ ID NO: 234 (designed binder) MSLPAPKNLVVSRVTEDSARLSWTAPDAAFDSFFIGYLEPQPPGEAIALYVPGSERSYDLTGLKPGTEYNVTIQGVKGGFPSEPLVAHFTT
798

Indicate its recorded Apical domain:HSA; the binder in question is CD71-binding FN3 domain SEQ ID NO: 239 (designed binder) MSLPAPKNLVVSRVTEDSARLSWTAPDAAFDSFEIVYQENSAYGEAIVLTVPGSERSYDLTGLKPGTEYWVQIGGVKGGNWSAPLSAIFTT
442

Indicate its recorded Apical domain:HSA; the binder in question is CD71-binding FN3 domain SEQ ID NO: 278 (designed binder) MSLPAPKNLVVSRVTEDSARLSWTAPDAAFDSFEIGYFENLYLGEAIVLTVPGSERSHDLTGLKPGTEYWVQIGGVKGGNWSAPLSAIFTT
641

Indicate its recorded Apical domain:HSA; the binder in question is CD71-binding FN3 domain SEQ ID NO: 262 (designed binder) MSLPAPKNLVVSRVTEDSARLSWTAPDAAFDSFFIGYLEPQPPGEVIHLFVPGSERSYDLTGLKPGTEYNVTIQGVKGGFPSDPLVASFTT
562

Indicate its recorded Apical domain:HSA; the binder in question is CD71-binding FN3 domain SEQ ID NO: 298 (designed binder) MSLPAPKNLVVSRVTEDSARLSWTAPDAAFDSFEIGYFENLYLGEAIVLTVPGSERSYDLTGLKPGTEYWVQIGGVKGDNWSAPLSAIFTT
414

Indicate its recorded Apical domain:HSA; the binder in question is CD71-binding FN3 domain SEQ ID NO: 311 (designed binder) MSLPAPKNLVVSRVTEDSARLSWTAPDAAFDSFEIGYWENAYKGEAIVLTVPGSERSYDLTGLKPGTEYVVFIGGVKGGSWSNPLSAIFTT
260

Indicate its recorded Apical domain:HSA; the binder in question is CD71-binding FN3 domain SEQ ID NO: 289 (designed binder) MSLPAPKNLVVSRVTEDSARLSWTAPDAAFDSFEIAYFEIAWLGEAIVLTVPGSERSYDLTGLKPGTEYWVQIGGVKGGAYSTPLSAIFTT
112

Indicate its recorded Apical domain:HSA; the binder in question is CD71-binding FN3 domain SEQ ID NO: 251 (designed binder) MSLPAPKNLVVSRVTEDSARLSWTAPDAAFDSFEIGYFENLYLGEAIVLTVPGSERSYDLTGLKPGTEYWVQIGGVKGGNWSAPLVATFTT
903

Indicate its recorded Apical domain:HSA; the binder in question is CD71-binding FN3 domain SEQ ID NO: 300 (designed binder) MSLPAPKNLVVSRVTEDSARLSWTAPDAAFDSFEIGYFEATPNGEAIVLTVPGSERSYDLTGLKPGTEYKVFIGGVKGGRWSKPLSAIFTT
406

Indicate its recorded Apical domain:HSA; the binder in question is CD71-binding FN3 domain SEQ ID NO: 330 (designed binder) MSLPAPKNLVVSRVTEDSARLSWTAPDAAFDSFEIGYFENLYLGEAIVLTVPGSERSYDLTGLKPGTEYWVQIGGVKGGNWSAPLSAIVTT
92

Indicate its recorded Apical domain:HSA; the binder in question is CD71-binding FN3 domain SEQ ID NO: 270 (designed binder) MSLPAPKNLVVSRVTEDSARLSWTAPDAAFDSFFIGYLEPQPPGEAIHLYVPGSERSYDLTGLKPGTEYNVTIQGVKGGFPSEPLIANSTT
74

Indicate its recorded Apical domain:HSA; the binder in question is CD71-binding FN3 domain SEQ ID NO: 274 (designed binder) MSLPAPKNLVVSRVTEDSARLSWTAPDAAFDSFEIVYWEQVGVGEAIVLTVPGSERSYDLTGLKPGTEYWVQIGGVKGGGFSEPLSAIFTT
581

Indicate its recorded Apical domain:HSA; the binder in question is CD71-binding FN3 domain SEQ ID NO: 304 (designed binder) MSLPAPKNLVVSRVTEDSARLSWTAPDAAFDSFEIGYFENLYLGEAIVLTVPGSERSYDLTGLKPGTEYVVFIGGVKGGVWSVPLSAIFTT
446

Indicate its recorded Apical domain:HSA; the binder in question is CD71-binding FN3 domain SEQ ID NO: 312 (designed binder) MSLPAPKNLVVSRVTEDSARLSWTAPDAAFDSFEIGYFENLYLGEAIVLTIPGSERSYDLTGLKPGTEYWVQIGGVKGGNWSAPLSAIFTT
556

Indicate its recorded Apical domain:HSA; the binder in question is CD71-binding FN3 domain SEQ ID NO: 275 (designed binder) MSLPAPKNLVVSRVTEDSARLSWTAPDAAFDSFEIGYFENLYLGEAIVLTVPGSERSYDLTGLKPGTEYWVQIGGVKGGNWSAPLVAEFTT
515

Indicate its recorded Apical domain:HSA; the binder in question is CD71-binding FN3 domain SEQ ID NO: 253 (designed binder) MSLPAPKNLVVSRVTEDSARLSWTAPDAAFDSFDINYWENESGGEAIALFVPGSERSYDLTGLKPGTEYWVSIGGVKGGRFSEPLYARFTT
530

Indicate its recorded Apical domain:HSA; the binder in question is CD71-binding FN3 domain SEQ ID NO: 259 (designed binder) MSLPAPKNLVVSRVTEDSARLSWTAPDAAFDSFYIAYAEPRPDGEAILLEVPGSERSYDLTGLKPGTEYSVLIHGVKGGLLSSPLSATFTT
411

Indicate its recorded Apical domain:HSA; the binder in question is CD71-binding FN3 domain SEQ ID NO: 292 (designed binder) MSLPAPKNLVVSRVTEDSARLSWTAPDAAFDSFEIGYWENAYKGEAIVLTVPGSERSYDLTGLKPGTEYVVFIGGVKGGVWSVSLSAIFTT
355
